assay: Microsomal stability assay, rat liver microsomes; assay type: in vitro ADME; conditions: SD, pooled rat liver microsomes, 0.5 mg/mL protein
measurement.type: CLint scaled at 1 μM (mL/min/kg)

// known answers, use as guide
1) CCc1c(F)ccc2cc(O)cc(-c3ncc4c(N5CCCC6(CCO6)C5)nc(OCC5(CN(C)C)CC5)nc4c3F)c12 (stereo not drawn) = 51.1
2) CCc1c(F)ccc2cc(O)cc(-c3ncc4c(N5CCC[C@]6(CCO6)C5)nc(OCC5(CN6CCC(F)CC6)CC5)nc4c3F)c12 [Compound 29a] = 410
3) CCc1c(F)ccc2cc(O)cc(-c3ncc4c(N5CCCC(C)(O)C5)nc(OC[C@@]56CCCN5C[C@H](F)C6)nc4c3F)c12 (stereo partly drawn) [Compound A1, reference compound] = 111
4) CCc1c(F)ccc2cc(O)cc(-c3ccc4c(N5CCC[C@]6(CCO6)C5)nc(OCC5(CN(C)C)CC5)nc4c3F)c12 [Compound 15a] = 52.9
5) CCc1c(F)ccc2cc(O)cc(-c3ncc4c(N5CCC[C@]6(CCO6)C5)nc(OC[C@@]56CCCN5C[C@H](F)C6)nc4c3F)c12 = 311

P. CCc1c(F)ccc2cc(O)cc(-c3ncc4c(N5CCC[C@]6(CCO6)C5)nc(OCC5(CN(C)C)CC5)nc4c3F)c12 [Compound 34a]
Q. CCc1c(F)ccc2cc(O)cc(-c3ncc4c(N5CCC[C@@]6(CCO6)C5)nc(OC[C@@]56CCCN5C[C@H](F)C6)nc4c3F)c12
R. CCc1c(F)ccc2cc(O)cc(-c3ncc4c(N5CCC[C@]6(CCO6)C5)nc(OCC5(CN6CCCC6)CC5)nc4c3F)c12 [Compound 10a]
S. CCc1c(F)ccc2cc(O)cc(-c3ncc4c(N5CCCC6(CCO6)C5)nc(OCC5(CN6CCOCC6)CC5)nc4c3F)c12 (stereo not drawn)
List items by CLint scaled at 1 μM in falling order. API: response body holds the labels in the requested order.
S, Q, R, P
(S: 887 mL/min/kg, Q: 288 mL/min/kg, R: 46.4 mL/min/kg, P: 29.2 mL/min/kg)
